Tested on: colorectal tissue transcripts
assayNotes: SAGE of normal, adenoma and cancer colorectal tissue (transcript tag counts)
Parameters: species or system human
measurementConditions: adenoma library 2
AD2 (SAGE tag count) overview
Answer with the value's number alone.

Example entries begin here.
| biosequence | experimentalValue |
| --- | --- |
| TTCTGTAGCC (chemistry not fully specified) | 2 |
| TCGGAGCTGT (chemistry not fully specified) | 6 |
| TAATTTGCAT (chemistry not fully specified) | 1 |
| TTCCACTAAC (chemistry not fully specified) | 4 |
| TTATGGTGTG (chemistry not fully specified) | 0 |
| TATGATGAGC (chemistry not fully specified) | 2 |

Which value of AD2 (SAGE tag count) has been reported for TGGCGCGTGT (chemistry not fully specified) in the records?
0

What do we get for TGCAGCACGA (chemistry not fully specified) ?
30

// next record TTTTTACTGA (chemistry not fully specified)
10

Check TAATCCCAGC (chemistry not fully specified) too.
7

Try the sequence GTGGTTCACG (chemistry not fully specified)
0

Repeat with TAAGGCCTTT (chemistry not fully specified; the letters are possibly those of the target site)
0

Record: TTAACCCCTC (chemistry not fully specified)
9

Cool, now TGACTAATTG (chemistry not fully specified)
0
